measurement_protocol: Toxicity against BALB/c mouse macrophage by MTT assay
Format: cell-based
condition_set: mouse macrophages
pIC50: −log10 of the molar value.
Label true when pIC50 >= 5; otherwise false.

Task: Please tell me: is the compound `COc1cc(O)cc(O)c1C(=O)/C=C/c1ccc(Cl)cc1` at or over 5 in terms of pIC50?
Output: false

Task: Please tell me: is the compound `COc1cc(O)cc(O)c1C(=O)/C=C/c1ccco1` at or over 5 in terms of pIC50?
Output: false

Task: Please tell me: is the compound `COc1cc(O)cc(O)c1C(=O)/C=C/c1ccccc1F` at or over 5 in terms of pIC50?
Output: false

Task: Please tell me: is the compound `C=CCOc1cc(OC)c(C(=O)/C=C/c2ccccc2Br)c(OCC=C)c1` at or over 5 in terms of pIC50?
Output: true

Task: Please tell me: is the compound `COc1cc(O)cc(O)c1C(=O)/C=C/c1ccc(C)cc1` at or over 5 in terms of pIC50?
Output: false

Task: Please tell me: is the compound `COc1cc(O)cc(O)c1C(=O)/C=C/c1ccc(C(F)(F)F)cc1` at or over 5 in terms of pIC50?
Output: false
